Assay: Pharmacokinetic study of CLDN18.2-linker conjugates (serum ELISA, NCA)
Type: in vivo, BALB/c mice
Settings: BALB/c mice, intravenous, about 1 mg/kg, serum, over 48 hours
Measured Cl of individual entries
Give the number; mL/min/kg is assumed, so skip it.

{"columns": ["molecule", "uom", "Cl"],
 "data": [
  ["CLDN18.2-L010: Claudin 18.2 sdAb (SEQ ID NO. 1) conjugated with functional linker L010 (conjugate, functional linker L010 conjugated) VHH: EVQLVESGGGLVQPGGSLRLSCAASGSFFRIVAMGWYRQAPGSQRELVATITRGGSTYYADSVKGRFTISRDNAKNTLYLQMNSLRAEDTAVYYCNVRVEVPFMQPNDYWGQGTLVTVSS", "mL/min/kg", 1.02],
  ["CLDN18.2-L005: Claudin 18.2 sdAb (SEQ ID NO. 1) conjugated with functional linker L005 (conjugate, functional linker L005 conjugated) VHH: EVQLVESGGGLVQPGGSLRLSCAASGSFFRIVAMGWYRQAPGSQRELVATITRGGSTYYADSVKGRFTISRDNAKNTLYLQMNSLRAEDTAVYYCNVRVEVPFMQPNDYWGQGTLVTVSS", "mL/min/kg", 17.8],
  ["CLDN18.2-L012: Claudin 18.2 sdAb (SEQ ID NO. 1) conjugated with functional linker L012 (conjugate, functional linker L012 conjugated) VHH: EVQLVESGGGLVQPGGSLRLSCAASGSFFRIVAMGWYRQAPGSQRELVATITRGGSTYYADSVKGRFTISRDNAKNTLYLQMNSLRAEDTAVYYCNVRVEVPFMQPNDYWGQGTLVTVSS", "mL/min/kg", 7.02]
]}

Per the record, CLDN18.2-DOTAGA: Claudin 18.2 sdAb (SEQ ID NO. 1) conjugated with DOTAGA, used as control for chelating imaging radioisotope (conjugate, DOTAGA chelator conjugated) VHH: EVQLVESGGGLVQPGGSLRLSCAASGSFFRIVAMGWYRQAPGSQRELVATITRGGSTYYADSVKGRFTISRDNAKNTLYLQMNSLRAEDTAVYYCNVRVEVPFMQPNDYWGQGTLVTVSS has Cl of 10.2
